# systemName: G-protein coupled receptor 55 (Homo sapiens, UniProt Q9Y2T6)
# testProtocol: inhibition of LPI-stimulated GPR55 beta-arrestin translocation – imaging, U2OS, beta-arrestin-GFP, LPI agonist, primary screen (AID 2013);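 further: antagonist potency measured as reduced agonist-driven arrestin aggregation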
# Format: functional
Active and inactive are the calls of the source.
Use one of these outcomes when replying: active, inactive

INSERT INTO assay_data (compound, systemname, category) VALUES
  ('COC(=O)C1=C(N)c2ccccc2C1(C#N)c1ccccc1 (centres undefined)', 'G-protein coupled receptor 55 (Homo sapiens, UniProt Q9Y2T6)', 'active'),
  ('c1ccc(-c2c(-c3ccccc3)n(Cc3ccco3)c3ncnc(NCCCn4ccnc4)c23)cc1', 'G-protein coupled receptor 55 (Homo sapiens, UniProt Q9Y2T6)', 'active');

In: Any idea what this test logged for O=C(Nc1ccccc1Cl)C(Cl)C(=O)c1ccccc1 (centres undefined) ?
Out: inactive

In: Any idea what this test logged for `CC(C)N(C(=O)CSc1nc2ccccc2n1-c1ccccc1)C(C)C` ?
Out: active

----------
# systemName: Fatty acid synthase (Homo sapiens, UniProt P49327)
# Sequence (P49327 whole entry): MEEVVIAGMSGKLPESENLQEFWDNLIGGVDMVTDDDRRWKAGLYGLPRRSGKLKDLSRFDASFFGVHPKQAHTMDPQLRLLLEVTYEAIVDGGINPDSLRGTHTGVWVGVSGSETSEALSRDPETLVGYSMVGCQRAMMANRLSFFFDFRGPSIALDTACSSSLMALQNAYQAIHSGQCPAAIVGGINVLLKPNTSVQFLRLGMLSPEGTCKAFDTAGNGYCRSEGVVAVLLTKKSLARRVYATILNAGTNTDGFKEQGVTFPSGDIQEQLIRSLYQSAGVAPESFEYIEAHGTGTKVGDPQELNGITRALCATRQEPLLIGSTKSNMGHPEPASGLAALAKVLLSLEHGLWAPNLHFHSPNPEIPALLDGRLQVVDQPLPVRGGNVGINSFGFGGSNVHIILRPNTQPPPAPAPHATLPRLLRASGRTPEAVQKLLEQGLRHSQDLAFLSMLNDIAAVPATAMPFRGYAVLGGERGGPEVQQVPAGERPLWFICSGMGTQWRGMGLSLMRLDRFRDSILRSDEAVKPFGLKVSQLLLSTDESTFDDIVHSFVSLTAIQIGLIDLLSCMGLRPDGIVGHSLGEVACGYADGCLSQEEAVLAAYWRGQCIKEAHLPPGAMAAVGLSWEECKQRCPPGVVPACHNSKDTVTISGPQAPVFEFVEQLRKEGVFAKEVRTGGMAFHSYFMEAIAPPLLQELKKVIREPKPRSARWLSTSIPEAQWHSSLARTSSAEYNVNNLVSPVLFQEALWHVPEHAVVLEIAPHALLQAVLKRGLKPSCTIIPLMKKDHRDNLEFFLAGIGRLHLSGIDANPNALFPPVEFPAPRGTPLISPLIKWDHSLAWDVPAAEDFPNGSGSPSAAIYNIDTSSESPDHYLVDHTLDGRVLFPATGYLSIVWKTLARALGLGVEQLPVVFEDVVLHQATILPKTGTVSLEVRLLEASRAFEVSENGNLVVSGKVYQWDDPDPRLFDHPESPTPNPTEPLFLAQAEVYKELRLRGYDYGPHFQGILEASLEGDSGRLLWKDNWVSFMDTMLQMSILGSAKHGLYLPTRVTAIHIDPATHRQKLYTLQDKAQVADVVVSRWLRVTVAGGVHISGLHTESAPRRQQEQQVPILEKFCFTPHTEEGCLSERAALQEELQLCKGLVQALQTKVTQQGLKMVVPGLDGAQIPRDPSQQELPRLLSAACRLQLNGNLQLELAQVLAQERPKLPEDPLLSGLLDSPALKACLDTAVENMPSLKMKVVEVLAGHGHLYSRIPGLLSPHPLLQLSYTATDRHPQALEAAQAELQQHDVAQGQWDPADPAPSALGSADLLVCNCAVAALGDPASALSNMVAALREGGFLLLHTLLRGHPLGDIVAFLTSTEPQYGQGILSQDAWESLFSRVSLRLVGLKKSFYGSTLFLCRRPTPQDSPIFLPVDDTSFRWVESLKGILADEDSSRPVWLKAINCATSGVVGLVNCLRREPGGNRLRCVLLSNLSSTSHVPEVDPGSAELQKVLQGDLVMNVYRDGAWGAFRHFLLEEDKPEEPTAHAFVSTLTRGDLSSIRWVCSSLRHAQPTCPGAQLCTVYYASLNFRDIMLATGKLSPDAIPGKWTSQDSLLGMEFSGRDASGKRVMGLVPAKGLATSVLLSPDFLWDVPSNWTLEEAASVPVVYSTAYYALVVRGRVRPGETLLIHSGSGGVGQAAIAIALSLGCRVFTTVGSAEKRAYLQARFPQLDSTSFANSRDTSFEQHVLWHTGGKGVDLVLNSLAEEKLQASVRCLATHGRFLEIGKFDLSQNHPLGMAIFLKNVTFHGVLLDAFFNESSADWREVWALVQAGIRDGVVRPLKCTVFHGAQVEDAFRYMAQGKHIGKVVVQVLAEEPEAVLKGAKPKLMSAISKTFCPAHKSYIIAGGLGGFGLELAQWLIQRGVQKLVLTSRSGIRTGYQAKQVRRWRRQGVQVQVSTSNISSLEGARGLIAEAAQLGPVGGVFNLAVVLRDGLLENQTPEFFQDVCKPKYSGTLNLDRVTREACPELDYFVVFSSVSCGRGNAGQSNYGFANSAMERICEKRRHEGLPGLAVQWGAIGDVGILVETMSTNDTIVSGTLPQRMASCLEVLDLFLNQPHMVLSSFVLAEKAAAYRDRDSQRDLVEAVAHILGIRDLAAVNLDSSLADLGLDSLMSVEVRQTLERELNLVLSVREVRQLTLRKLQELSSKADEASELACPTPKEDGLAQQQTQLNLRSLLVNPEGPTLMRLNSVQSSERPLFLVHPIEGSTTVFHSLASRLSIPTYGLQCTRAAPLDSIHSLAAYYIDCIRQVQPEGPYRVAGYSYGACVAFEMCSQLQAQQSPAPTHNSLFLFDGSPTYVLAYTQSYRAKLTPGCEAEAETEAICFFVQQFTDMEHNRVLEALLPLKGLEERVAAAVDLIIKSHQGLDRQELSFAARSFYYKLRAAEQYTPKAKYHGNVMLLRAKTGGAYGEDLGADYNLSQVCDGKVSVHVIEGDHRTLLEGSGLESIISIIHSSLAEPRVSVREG
# testProtocol: inhibition of human FAS-TE enzyme activity – biochemical, kinetic fluorescence intensity, dose response (AID 624326);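 further: rate of fluorescence rise from hydrolysis of a fluorogenic O-methyl fluorescein ester substrate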
# Format: functional
Active and inactive are the calls of the source.
Use one of these outcomes when replying: active, inactive

These solved cases illustrate the format of a correct answer.
INSERT INTO assay_data (smilesrepresentation, category) VALUES
  ('C=CCn1c(SCc2ccc(Br)cc2F)nc2cc(C(=O)O)ccc2c1=O', 'active'),
  ('Cc1ccc(S(=O)(=O)N[N-][C+]2CCC(C(C)(C)C)CC2)cc1[N+](=O)[O-]', 'inactive'),
  ('Cc1nc2ccc([N+](=O)[O-])cc2c(=O)n1Cc1ccc([N+](=O)[O-])cc1', 'active');

We now examine a further molecule.
In: Any idea what this test logged for `CC(C)C[C@@]12C(=O)N(c3ccc(Br)cc3)C(=O)N1[C@H](c1ccc(Br)cc1)[C@@H]1C(=O)N(C(C)(C)C)C(=O)[C@@H]12` ?
Out: active

----------
Catalogue of compounds with associated AC50
# systemName: Cytochrome P450 2C19 (Homo sapiens, UniProt P33261)
# Sequence (P33261 whole entry): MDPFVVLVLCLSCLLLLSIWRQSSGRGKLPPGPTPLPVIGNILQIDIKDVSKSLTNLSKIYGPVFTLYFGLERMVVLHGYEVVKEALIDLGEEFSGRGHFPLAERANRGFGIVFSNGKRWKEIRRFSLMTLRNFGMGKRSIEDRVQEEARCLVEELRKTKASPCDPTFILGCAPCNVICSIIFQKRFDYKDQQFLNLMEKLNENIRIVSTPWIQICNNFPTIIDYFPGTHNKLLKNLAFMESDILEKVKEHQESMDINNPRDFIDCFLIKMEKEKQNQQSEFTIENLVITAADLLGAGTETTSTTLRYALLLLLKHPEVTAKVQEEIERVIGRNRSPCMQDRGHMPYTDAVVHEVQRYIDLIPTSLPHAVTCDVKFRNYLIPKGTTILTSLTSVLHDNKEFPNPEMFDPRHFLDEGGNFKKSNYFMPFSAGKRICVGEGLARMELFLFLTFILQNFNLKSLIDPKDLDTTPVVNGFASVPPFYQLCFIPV
# testProtocol: Cytochrome panel assay with activity outcomes. Panel member name: p450-cyp2c19 Compounds with AC50 equal or less than 10 uM are considered active
# Assay type: functional
# testConditions: read-out: AC50

Previously resolved entries follow.
INSERT INTO results (compound, measured) VALUES
  ('O=C(CSc1ccccc1)Nc1ccc(NC(=O)c2ccco2)cc1', '14.1 µM (inconclusive)'),
  ('CN1CCc2nc3sc(C(=O)NC(C)(C)C)c(N)c3cc2C1', '31.6 µM (inconclusive)'),
  ('Cc1ccc(S(=O)(=O)N2CCOCC2)cc1NC(=O)COC(=O)CCC(=O)c1cccs1', '39.8 µM (inconclusive)');

In: Query (compound): `CCC(=O)Nc1cccc(-c2nc3ccccc3c(=O)o2)c1` ; field requested: AC50
Out: 39.8 µM (inconclusive)

In: Query (compound): `Cc1ccc(CNC(=O)C2(NC(=O)Nc3ccc(C)cc3)CCCCC2)cc1` ; field requested: AC50
Out: 1.78 µM (inconclusive)

----------
# systemName: 26S proteasome non-ATPase regulatory subunit 14 (Homo sapiens)
# testProtocol: inhibition of proteasome subunit RPN11 – biochemical, fluorescence polarization, uHTS hits, confirmation (AID 602368)
# Format: functional
Calls of active or inactive are those of the source.
Catalogue of molecules with associated IC50

Previously resolved entries follow.
INSERT INTO assay_data (smilesrepresentation, reportedmetric, measured) VALUES
  ('N=C1/C(=C/c2ccc(-c3cccc(C(=O)O)c3)o2)C(=O)N=C2SC=C(c3ccccc3)N12', 'IC50', '5.82 µM (active)'),
  ('CCOc1cc(/C=C2\SC(=S)N(NS(=O)(=O)c3ccc(C)cc3)C2=O)ccc1O', 'IC50', '36.9 µM (active)');

In: Query the reported IC50 for 26S proteasome non-ATPase regulatory subunit 14 (Homo sapiens); item: `CCc1ccc(NC(=O)CCc2nc3sc4c(c3c(=O)[nH]2)CCCC4)cc1`
Out: 37.6 µM (active)

In: Query the reported IC50 for 26S proteasome non-ATPase regulatory subunit 14 (Homo sapiens); item: `CN(C)c1ccc(/C=C/C=C2/C(=O)NC(=O)N(c3ccccc3)C2=O)cc1`
Out: 28.2 µM (active)

In: Query the reported IC50 for 26S proteasome non-ATPase regulatory subunit 14 (Homo sapiens); item: `Cc1c(P(=S)(c2ccccc2)c2ccccc2)[n+]2ccccc2n1C`
Out: 5.42 µM (active)

In: Query the reported IC50 for 26S proteasome non-ATPase regulatory subunit 14 (Homo sapiens); item: `O=C1c2ccccc2S(=O)(=O)c2cc(N3CCOCC3)ccc21`
Out: 10.9 µM (active)

In: Query the reported IC50 for 26S proteasome non-ATPase regulatory subunit 14 (Homo sapiens); item: `O=C(/C=C/c1ccccc1Cl)Nc1ccc2c(c1)C(=O)NC2=O`
Out: 17.9 µM (active)

----------
# systemName: FAD-linked sulfhydryl oxidase ALR (Homo sapiens, UniProt P55789)
# testProtocol: ALR-catalysed DTT oxidation blockers – biochemical, H2O2 detection, luminescence, cherry-pick, dose response (AID 493248)
Counter-ions that a name gives are not always drawn. Calls of active or inactive are those of the source.
reportedMetric: AC50

Previously resolved entries follow.
INSERT INTO results (molecule, measured) VALUES
  ('CC(=O)N1CCN(c2ccc(NCc3cccc4ccccc34)cc2)CC1', '1.36 µM (active)'),
  ('CCN(CC)c1ccc([C@H]2[C@@H]3CCCC[C@]3(O)CCN2CC(=O)NCc2ccco2)cc1', '1.54 µM (active)'),
  ('Oc1ccc(Br)cc1CN1CCCCCCC1', '7.63 µM (active)'),
  ('COc1ccc(O)c(-c2cc(-c3ccccc3[N+](=O)[O-])[nH]n2)c1', '4.33 µM (active)'),
  ('COc1cc(NS(C)(=O)=O)ccc1Nc1c2ccccc2nc2ccccc12 [AMSACRINE HYDROCHLORIDE]', '16 µM (active)');

Pending molecule:
In: Query (molecule): `O=C(O)c1ccccc1NC(=O)c1cc(-c2ccccc2)nc2ccccc12` ; field requested: AC50
Out: 0.703 µM (active)

----------
Catalogue of compounds with associated EC50
# systemName: Peroxisome proliferator-activated receptor gamma/Nuclear receptor coactivator 3 (Homo sapiens, UniProt P37231)
# Sequence (P37231 whole entry): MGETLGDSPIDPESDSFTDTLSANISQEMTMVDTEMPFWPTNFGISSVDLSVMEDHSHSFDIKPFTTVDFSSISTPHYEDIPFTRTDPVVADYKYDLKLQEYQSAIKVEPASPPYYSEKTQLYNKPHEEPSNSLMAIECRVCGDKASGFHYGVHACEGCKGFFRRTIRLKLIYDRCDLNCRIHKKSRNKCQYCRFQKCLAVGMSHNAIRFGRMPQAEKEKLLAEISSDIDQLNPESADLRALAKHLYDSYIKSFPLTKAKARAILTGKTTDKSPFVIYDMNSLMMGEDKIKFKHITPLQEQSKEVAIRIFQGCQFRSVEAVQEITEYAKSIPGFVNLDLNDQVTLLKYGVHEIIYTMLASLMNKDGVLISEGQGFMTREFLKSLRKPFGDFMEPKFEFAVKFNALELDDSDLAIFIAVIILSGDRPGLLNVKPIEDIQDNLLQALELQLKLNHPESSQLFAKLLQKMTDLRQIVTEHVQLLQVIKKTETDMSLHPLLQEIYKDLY
# Sequence (Q9Y6Q9 whole entry, further chain): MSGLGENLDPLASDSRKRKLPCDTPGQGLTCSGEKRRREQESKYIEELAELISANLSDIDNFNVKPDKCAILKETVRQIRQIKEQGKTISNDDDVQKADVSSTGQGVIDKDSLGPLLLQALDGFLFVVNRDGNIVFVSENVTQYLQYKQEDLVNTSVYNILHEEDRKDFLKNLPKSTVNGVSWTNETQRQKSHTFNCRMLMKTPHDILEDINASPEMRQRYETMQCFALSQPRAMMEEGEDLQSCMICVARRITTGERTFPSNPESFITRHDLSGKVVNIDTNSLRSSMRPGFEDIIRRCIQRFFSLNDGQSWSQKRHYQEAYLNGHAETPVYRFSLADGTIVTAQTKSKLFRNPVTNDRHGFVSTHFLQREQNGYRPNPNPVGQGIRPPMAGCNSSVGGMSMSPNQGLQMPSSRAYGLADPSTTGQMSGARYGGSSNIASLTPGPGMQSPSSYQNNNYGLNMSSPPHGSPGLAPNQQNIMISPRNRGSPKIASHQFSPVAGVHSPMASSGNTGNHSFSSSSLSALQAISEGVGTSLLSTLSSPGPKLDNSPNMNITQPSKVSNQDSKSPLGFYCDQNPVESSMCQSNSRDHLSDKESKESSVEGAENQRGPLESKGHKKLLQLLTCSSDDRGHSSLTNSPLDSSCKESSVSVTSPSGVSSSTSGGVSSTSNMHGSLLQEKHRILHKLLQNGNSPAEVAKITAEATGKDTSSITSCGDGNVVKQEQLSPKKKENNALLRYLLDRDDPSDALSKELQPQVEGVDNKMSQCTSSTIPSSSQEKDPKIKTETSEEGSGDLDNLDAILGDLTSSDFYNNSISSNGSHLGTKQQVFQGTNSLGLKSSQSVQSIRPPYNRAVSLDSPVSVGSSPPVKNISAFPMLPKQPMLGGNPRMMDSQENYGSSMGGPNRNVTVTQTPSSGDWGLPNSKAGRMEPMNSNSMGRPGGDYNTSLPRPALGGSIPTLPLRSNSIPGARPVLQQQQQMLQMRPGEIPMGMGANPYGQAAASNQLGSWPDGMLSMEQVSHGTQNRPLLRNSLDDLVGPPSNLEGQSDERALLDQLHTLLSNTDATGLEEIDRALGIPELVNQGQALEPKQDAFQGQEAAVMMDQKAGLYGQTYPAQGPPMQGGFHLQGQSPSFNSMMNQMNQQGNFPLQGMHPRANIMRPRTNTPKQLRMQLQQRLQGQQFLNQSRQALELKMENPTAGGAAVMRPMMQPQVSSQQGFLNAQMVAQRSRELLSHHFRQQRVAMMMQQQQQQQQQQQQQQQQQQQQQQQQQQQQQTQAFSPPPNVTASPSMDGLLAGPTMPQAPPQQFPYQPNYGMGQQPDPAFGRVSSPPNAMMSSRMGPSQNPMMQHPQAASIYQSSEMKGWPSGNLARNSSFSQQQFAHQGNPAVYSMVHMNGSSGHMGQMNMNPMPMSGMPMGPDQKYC
# testProtocol: TR-FRET dose response biochemical High Throughput Screening assay for agonists of the steroid receptor coactivator 3 (SRC-3) recruitment by the peroxisome proliferator-activated receptor gamma (PPAR gamma): non-selective agonists. [Related pubchem assays: 1301 (Confirmation screen.), 1048 (Primary screen.)]
# Format: functional
Active and inactive are the calls of the source.

Previously resolved entries follow.
INSERT INTO assay_data (smilesrepresentation, reportedmetric, measured) VALUES
  ('CC(C)CC(=O)NC(=S)Nc1cccc2nsnc12', 'EC50', '7.93 µM (active)'),
  ('O=C(NN1C(=O)/C(=C/c2nc3ccccc3[nH]2)SC1=S)c1ccccc1Cl', 'EC50', '> 79.4 µM (not active)'),
  ('Nc1nc(-c2c[nH]c3ccccc23)cs1', 'EC50', '> 79.4 µM (not active)'),
  ('CN(C)c1ccc(/C=C/C=C2/C(=O)NC(=O)N(c3ccccc3)C2=O)cc1', 'EC50', '> 79.4 µM (not active)');

Pending compound:
In: Query (compound): `CC(C)Sc1ncnc2c1oc1ccccc12` ; field requested: EC50
Out: > 79.4 µM (not active)

----------
# systemName: Sentrin-specific protease 8 (Homo sapiens);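 further: luminescence read-out of SENP8 inhibition, dose-response confirmation following an ultra-high-throughput screen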
# Sequence (Q96LD8 whole entry): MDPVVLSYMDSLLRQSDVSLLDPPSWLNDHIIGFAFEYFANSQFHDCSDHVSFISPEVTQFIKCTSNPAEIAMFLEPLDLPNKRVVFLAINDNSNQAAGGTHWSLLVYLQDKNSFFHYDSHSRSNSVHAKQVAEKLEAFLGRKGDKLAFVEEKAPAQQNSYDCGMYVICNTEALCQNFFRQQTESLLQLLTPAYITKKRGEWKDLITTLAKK
# Type: functional
The source made the active and inactive calls.
Catalogue of molecules with associated IC50

Previously resolved entries follow.
INSERT INTO assay_data (smilesrepresentation, reportedmetric, measured) VALUES
  ('CCc1ccc2oc(-c3ccc(NC(C)=O)cc3)nc2c1', 'IC50', '13.2 µM (active)'),
  ('Cn1c(=O)c2ncn(CC(=O)Nc3cccc(-c4nc5ccccc5s4)c3)c2n(C)c1=O', 'IC50', '26.1 µM (active)'),
  ('Cc1cccc(-c2cc3nc(-c4ccccc4)cc(O)n3n2)c1', 'IC50', '2.01 µM (active)'),
  ('CN(C(=O)c1ccccc1)c1nc2ccccc2s1', 'IC50', '50.4 µM (active)'),
  ('CC(=O)N1C(=O)/C(=C2\SC(=S)N(NC(=O)c3ccc(O)cc3)C2=O)c2ccccc21', 'IC50', '10.3 µM (active)');

Pending molecule:
In: Query (molecule): `Cc1cc(N2CCCCC2)n2ncc(-c3ccccc3)c2n1` ; field requested: IC50
Out: 12.4 µM (active)

// data source = ChEMBL document CHEMBL1201862
